read-out: Transforming growth factor beta 1 (TGFb1), TGFB1 (gene 7040); assay: BSK_BE3C_TGFb1: BioMAP Diversity Plus: BE3C Assay for Transforming growth factor beta 1 (TGFb1) Biomarker Activity (AID 2283036;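 for outcome: TGF-b1 protein level measured by ELISA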); details: primary human bronchial epithelial cells; actives raise or lower the signal
Active and inactive are the calls of the source. Rule for the calls: active = hit-call score of the fitted dose curve at least 0.9, where 1 is the maximum; inactive = score below 0.9.
Tick one outcome: active, inactive

query: Record request — test call for `CCN(CC)C(=O)C(Cl)=C(C)OP(=O)(OC)OC`
result: inactive

query: Record request — test call for `Clc1cccc(Cl)c1`
result: inactive

query: Record request — test call for `COCC(=O)N(c1c(C)cccc1C)[C@H](C)C(=O)OC`
result: inactive

query: Record request — test call for `O=C(O)C1(c2ccc3c(c2)OC[C@H](Cc2ccc(-c4ccccc4)cc2)[C@H]3O)CCCC1`
result: active

query: Record request — test call for `CCCCN(CCCC)C(=S)[S-].CCCCN(CCCC)C(=S)[S-].[Ni+2]`
result: inactive

Data origin: PubChem BioAssay (EPA / NIEHS)
